# target_desc: PKA RIα (full-length) (bovine, UniProt P00514)
# Sequence (P00514 2-380): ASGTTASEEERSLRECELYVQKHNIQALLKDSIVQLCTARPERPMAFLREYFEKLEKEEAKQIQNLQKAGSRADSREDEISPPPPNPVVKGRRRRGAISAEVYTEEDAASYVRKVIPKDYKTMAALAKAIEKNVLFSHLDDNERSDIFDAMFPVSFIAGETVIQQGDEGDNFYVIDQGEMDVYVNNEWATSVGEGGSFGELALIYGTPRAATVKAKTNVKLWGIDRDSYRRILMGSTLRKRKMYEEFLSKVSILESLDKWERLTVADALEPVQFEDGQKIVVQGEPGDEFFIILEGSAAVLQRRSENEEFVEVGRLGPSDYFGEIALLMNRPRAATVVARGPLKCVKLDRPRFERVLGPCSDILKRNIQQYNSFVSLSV
# experimental_details: FP
Ends that are not written are not given here.
measure: Kd (nM)

I: VQGNTDEAQEELLWKIAKMIVSDVMQQC (also: fluorescently labeled) [AKB(RII)]
II: FEELAWKIAKMIWSDVFQQC [AKB(RI) PV-38]
III: VQGNTDEAQEELAWKIAKMIVSDVMQQC(tetramethylrhodamine) [AKB(dual) WT]
IV: VQGNTDEAQEELAWKIEKMIWSDVMQQC (also: fluorescently labeled) [AKB(null)]
Query: Please put the 4 binders above in a list ordered by falling Kd. Please list the labels in the order you were asked to rank them.
Response: I, IV, III, II
